# ASSAY SUMMARY: NCI Yeast Anticancer Drug Screen. Data for the cln2 rad14 strain (AID 165);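 further: 0% = growth equal to vehicle treated cultures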
# EXPERIMENTAL CONTEXT: S. cerevisiae cln2 rad14 strain, at 50.0 µM, active compounds read high
This is part of a sample that, as a whole, favours compounds with a hit. Of some 79,000 tested, about 15% had one in any assay.
MEASURED PARAMETER: growth inhibition (%)
Your answer is read as %, so omit the unit and give the number.

Given CN1C(=O)OC2C3NC(=O)OC3C(O)C(O)C21 (stereo not drawn) , respond with its growth inhibition.
-1.15

Given COc1cc(OC)c(N=Nc2c(O)n(C)c(=O)n(C)c2=O)cc1Cl , respond with its growth inhibition.
3.85

Given COC(=O)Nc1cn2cc(C(=O)c3cccs3)ccc2n1 , respond with its growth inhibition.
-10.5

Given COc1ccc(C(=O)C2CCC(C(=O)O)C2)cc1 (stereo not drawn) , respond with its growth inhibition.
-6.35

Given CCn1cnc2c(=O)n(C)c(=O)n(C)c21 , respond with its growth inhibition.
-36

Further cases:
Given COc1ccc(/C=C/c2c([N+](=O)[O-])c(=O)n(C)c(=O)n2C)cc1 , respond with its growth inhibition.
16.1

Given CC[N+](CC)(CC)CCC[n+]1ccc(/C=N\O)cc1 , respond with its growth inhibition.
-8.25

Given NC(=O)c1csc(C2OC3COP(=O)(O)OC3C2O)n1 (stereo not drawn) , respond with its growth inhibition.
-5.65

Given CC(=O)N(c1ccc(F)c(F)c1)c1ccc(F)c(F)c1 , respond with its growth inhibition.
1.5

Given CCN(CC)Cc1cc(-n2cnc3c(=S)nc[nH]c32)ccc1O , respond with its growth inhibition.
3.45

Given N#CC(NNC(=O)c1ccccc1O)c1cccc(O)c1 (stereo not drawn) , respond with its growth inhibition.
-6.7

Given C=CCN(N=O)C(=O)NCCCCC(NC(C)=O)C(=O)NCc1ccccc1 (stereo not drawn) , respond with its growth inhibition.
-6.3

Given NC(=O)CSc1ccccc1 , respond with its growth inhibition.
10.1

====

# ASSAY SUMMARY: NCI Yeast Anticancer Drug Screen. Data for the cln2 rad14 strain (AID 165);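 further: 0% = growth equal to vehicle treated cultures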
# EXPERIMENTAL CONTEXT: S. cerevisiae cln2 rad14 strain, at 50.0 µM, active compounds read high
About 79,000 compounds went through this panel and 15% of them were active in at least one assay; those are over-represented in the sample as a whole.
growth inhibition vs 10%: at or above is true, below is false.

Past entries and their recorded results:
Assess whether reported growth inhibition for CCCC(C)C(O)CC (stereo not given) sits at 10% or higher.
true

Assess whether reported growth inhibition for Cc1cc(C(=O)c2ccccc2)ccc1[N+](=O)[O-] sits at 10% or higher.
false

Further cases:
Assess whether reported growth inhibition for CCCCSCC(N)C(=O)OC (stereo not given) sits at 10% or higher.
false

Assess whether reported growth inhibition for CCN(CC)C(=O)c1ccc[n+](CCC(N)=O)c1 sits at 10% or higher.
true

====

# ASSAY SUMMARY: NCI Yeast Anticancer Drug Screen. Data for the bub3 strain (AID 167)
# EXPERIMENTAL CONTEXT: S. cerevisiae bub3 mutant strain, at 50.0 µM, active compounds read high
The panel holds about 79,000 compounds, 15% with a hit somewhere; the sample as a whole holds those more often.
# growth inhibition per entry
Your answer is read as %, so omit the unit and give the number.

Below, each entry is followed by its recorded growth inhibition result.
Given OC1(C2(O)CCCCC2)CCCCC1 , respond with its growth inhibition.
-11.8

Given CC(C)CCCC(C)C1CCC2C3CC=C4CC(OC5CCC6(C)C(=CCC7C6CCC6(C)C(C(C)CCCC(C)C)CCC76)C5)CCC4(C)C3CCC12C (stereo not given) , respond with its growth inhibition.
-1.75

Given COc1cccc(C(=O)c2ccc(OC)cc2C(=O)O)c1 , respond with its growth inhibition.
4.3

Further cases:
Given CN(CC1NCCCC1O)C12CC3CC(CC(C3)C1)C2 (stereo not given) , respond with its growth inhibition.
7

Given CCC(=O)Nc1cccc([N+](=O)[O-])c1OC , respond with its growth inhibition.
9.15

====

# ASSAY SUMMARY: NCI Yeast Anticancer Drug Screen. Data for the mlh1 rad18 strain (AID 175)
# EXPERIMENTAL CONTEXT: S. cerevisiae mlh1 rad18 strain growth inhibition; at 50.0 µM; active compounds read high
About 79,000 compounds went through this panel and 15% of them were active in at least one assay; those are over-represented in the sample as a whole.
# growth inhibition per entry
Your answer is read as %, so omit the unit and give the number.

Below, each entry is followed by its recorded growth inhibition result.
Given Cc1cc(=O)[nH]c(NNC(C#N)c2c(O)ccc3ccccc23)n1 (stereo not drawn) , respond with its growth inhibition.
12.9

Given CCNC(=O)C(C(=O)OCCN(CC)CC)c1ccccc1 (stereo not drawn) , respond with its growth inhibition.
16.7

Given CCC12C[N+]3([O-])CCc4c([nH]c5ccccc45)C(C(=O)OC)(c4cc5c(cc4OC)N(C)C4C(O)(C(=O)OC)C(OC(C)=O)C6(CC)C=CCN7CCC54C76)CC(C3)C1O2 (stereo not drawn) , respond with its growth inhibition.
-31.7

Given CN(C)c1ccc(/C=N/NC(=O)c2ccccc2NC(=O)C2CC2)cc1 , respond with its growth inhibition.
26.6

Given COC(=O)/C(C)=C/C=C/C(C)C(O)C(C)C1OC(CC(OC)OC)C(C)C(O)C1C (stereo not drawn) , respond with its growth inhibition.
19.9

Further cases:
Given CC(C)CC(CC(C)C)OC(=O)Nc1ccccc1 , respond with its growth inhibition.
25.9

Given O=C(CCBr)Nc1ccccc1 , respond with its growth inhibition.
-26.4

Given BrCCCC1CCCCC1 , respond with its growth inhibition.
-14.7

Given COc1ccc(CNc2ccccc2)cc1OC , respond with its growth inhibition.
-40

Given Cc1cccc(NC(=S)N(CCC#N)C2CCCCC2)c1 , respond with its growth inhibition.
9.85

Given Cc1ccc(C(=O)N/N=C/c2ccc3ccccc3c2)cc1 , respond with its growth inhibition.
-5.3

====

# ASSAY SUMMARY: NCI Yeast Anticancer Drug Screen. Data for the rad50 strain (AID 155);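 further: 0% = growth of vehicle-only cultures of the same strain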
# EXPERIMENTAL CONTEXT: S. cerevisiae rad50 strain growth inhibition; at 50.0 µM
This is part of a sample that, as a whole, favours compounds with a hit. Of some 79,000 tested, about 15% had one in any assay. Activity calls are given as the source filed them. No stated cut-off is given here; in the data, active means growth inhibition above about 70%; inactive means the rest.
Give your call using only these classes: active, inactive

Past entries and their recorded results:
Test call, this molecule: CC(CS(=O)(=O)Cc1ccccc1)C(N)=O (centres undefined)
inactive

Test call, this molecule: COc1ccc(OC)c(N=Nc2c(C)nc(N)nc2C)c1
inactive

Test call, this molecule: N#CCCn1c2ccccc2c2ccccc21
inactive

Test call, this molecule: O=C(CN1CCOCC1)NC(=O)c1ccccc1
inactive

Test call, this molecule: CC(=O)n1nc(Cl)c2cccnc2c1=O
inactive

Further cases:
Test call, this molecule: O/N=C/C(=Nc1ccc2ccccc2c1)NO
inactive

Test call, this molecule: C=C(CCCC(C)OC(C)OCC)[Si](C)(C)C (centres undefined)
inactive

Test call, this molecule: N#CCCN(Cc1ccccc1)C(=S)Nc1cccc(C(F)(F)F)c1
active

Test call, this molecule: COC(=O)/C(=N/O)C(C(=O)OC)C(=O)C(=O)Nc1c(Cl)cc(C)cc1S(=O)(=O)O (centres undefined)
inactive

====

# ASSAY SUMMARY: NCI Yeast Anticancer Drug Screen. Data for the bub3 strain (AID 167)
# EXPERIMENTAL CONTEXT: S. cerevisiae bub3 mutant strain, at 50.0 µM, active compounds read high
This is part of a sample that, as a whole, favours compounds with a hit. Of some 79,000 tested, about 15% had one in any assay.
MEASURED PARAMETER: growth inhibition (%)
Your answer is read as %, so omit the unit and give the number.

Below, each entry is followed by its recorded growth inhibition result.
Given Cc1[nH]c(=O)[nH]c(=O)c1-n1nnc2ccccc2c1=O , respond with its growth inhibition.
8.3

Given COc1ccc(OC(=O)Nc2ccc(OC)cc2Cl)cc1 , respond with its growth inhibition.
24.7

Given c1ccc(-c2cnc(C3CCCCC3)o2)cc1 , respond with its growth inhibition.
17.1

Given NC(=O)CNC(=O)c1ccc(N)cc1 , respond with its growth inhibition.
1.25

Given C=C(C)C#CC1(O)C=C(OC)C(OC)=CC1=O (stereo not given) , respond with its growth inhibition.
-13.1

Given NC(=O)c1nsc(-c2ccc([N+](=O)[O-])cc2)c1N , respond with its growth inhibition.
-17.8

Given O=C(O)Cc1ccc(OCCCCCOc2ccc(CC(=O)O)cc2)cc1 , respond with its growth inhibition.
-12

Given CCON=C(c1ccc(Cl)cc1)c1ccc(Cl)cc1 , respond with its growth inhibition.
26.1

Further cases:
Given CCOC(=O)c1c[nH]c2cc(Cl)cc(OC)c2c1=O , respond with its growth inhibition.
-7.35

Given Cc1ncc(CO)c(/C=N/NC(N)=S)c1O , respond with its growth inhibition.
0.05

Given CC1=NN(C(=O)c2ccccc2)C(=O)C1N=Nc1ccc([N+](=O)[O-])cc1 (stereo not given) , respond with its growth inhibition.
0
